pIC50: −log10 of the molar value.
Neuraminidase (Influenza A virus (A/Puerto Rico/8/1934(H1N1)), UniProt P03468) pIC50 data
Sequence (P03468 whole entry): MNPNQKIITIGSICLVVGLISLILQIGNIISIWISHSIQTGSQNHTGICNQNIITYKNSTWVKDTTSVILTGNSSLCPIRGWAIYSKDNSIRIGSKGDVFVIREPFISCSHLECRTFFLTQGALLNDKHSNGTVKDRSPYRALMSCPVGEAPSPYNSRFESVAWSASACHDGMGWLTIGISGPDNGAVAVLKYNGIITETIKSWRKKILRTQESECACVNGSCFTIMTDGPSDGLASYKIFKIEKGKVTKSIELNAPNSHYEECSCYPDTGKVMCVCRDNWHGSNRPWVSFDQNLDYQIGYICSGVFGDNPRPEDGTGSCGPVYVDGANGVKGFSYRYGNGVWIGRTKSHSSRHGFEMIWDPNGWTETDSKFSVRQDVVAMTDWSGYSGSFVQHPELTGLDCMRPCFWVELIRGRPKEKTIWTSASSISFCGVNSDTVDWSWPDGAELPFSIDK
measured attribute: pIC50

1) CCCCOc1ccc(N/C=C2\C(=O)c3ccccc3N2C(C)=O)cc1    6.38
2) CC(=O)N1/C(=C/Nc2cccc(OC(F)(F)F)c2)C(=O)c2ccccc21    6.70
3) CCOc1ccc(N/C=C2\C(=O)c3ccccc3N2C(C)=O)cc1    6.21
4) CCOC(=O)c1cccc(N/C=C2\C(=O)c3cc(Cl)ccc3N2C(C)=O)c1    5.69
5) COc1ccc(N/C=C2\C(=O)c3ccccc3N2C)cc1    6.00
6) CC(=O)N1/C(=C/Nc2ccc(Cl)cc2)C(=O)c2ccccc21    5.86
7) CC(=O)N1/C(=C/Nc2cccc(C(F)(F)F)c2)C(=O)c2ccccc21    6.02
8) COc1ccc(N/C=C2\C(=O)c3cccnc3N2C(C)=O)cc1    5.70
9) CC(=O)N1/C(=C/Nc2cc(F)cc(F)c2)C(=O)c2ccccc21    6.28
10) CCC(=O)N1/C(=C/Nc2ccc(OC)cc2)C(=O)c2ccccc21    6.14
11) COc1ccc(N/C=C2\C(=O)c3cc(Cl)ccc3N2C(C)=O)cc1    5.27
12) O=C1/C(=C\NCc2ccccc2)Nc2ccccc21    4.89
13) CC(=O)N1/C(=C/Nc2ccccc2C(F)(F)F)C(=O)c2ccccc21    6.24
14) CC(=O)N1/C(=C/Nc2ccc(OC(F)(F)F)cc2)C(=O)c2ccccc21    5.29
15) CC(=O)N1/C(=C/Nc2cccc(F)c2)C(=O)c2ccccc21    7.52
16) O=C1/C(=C\Nc2ccc(Cl)cc2)Nc2ccccc21    5.73
17) CCC(=O)N1/C(=C/Nc2cccc(F)c2)C(=O)c2ccccc21    6.64
18) CC(=O)N1/C(=C/Nc2ccc(F)c(F)c2)C(=O)c2ccccc21    6.33
19) COc1ccc(N/C=C2\C(=O)c3ccccc3N2C(C)=O)cc1OC    4.60
20) CCOC(=O)c1cccc(N/C=C2\C(=O)c3cccnc3N2C(C)=O)c1    5.01
21) CC(=O)N1/C(=C/Nc2cccc(F)c2F)C(=O)c2ccccc21    6.02
22) COc1cc(N/C=C2\C(=O)c3ccccc3N2C(C)=O)cc(OC)c1OC    5.57
23) O=C1/C(=C\Nc2ccccc2)Nc2ccccc21    5.27

----------
This section presents compounds with their documented selectivity ratio values.
# assay remarks: Selectivity index, ratio of CC50 for cytotoxicity against MDCK cells to IC50 for antiviral activity against Influenza A virus A/Puerto Rico/8/34 (H1N1) infected in MDCK cells
# Type: toxicity, cell-based
# condition summary: dog, read-out: Ratio CC50/IC50
measured attribute: selectivity ratio

1) CCC(=O)N1/C(=C/Nc2cccc(F)c2)C(=O)c2ccccc21    8
2) CC(=O)N1/C(=C/Nc2cccc(OC(F)(F)F)c2)C(=O)c2ccccc21    35
3) CC(=O)N1/C(=C/Nc2cccc(Oc3ccccc3)c2)C(=O)c2cccnc21    5
4) COc1ccc(N/C=C2\C(=O)c3ccccc3N2C(C)=O)cc1    151
5) CC(=O)N1/C(=C/Nc2cccc(F)c2)C(=O)c2ccccc21    44
6) CC(=O)N1/C(=C/Nc2ccc(Cc3ccccc3)cc2)C(=O)c2ccccc21    16
